Test: Toxicity in iv dosed mouse assessed as tolerance dose
Format: organism-based
Details: in vivo
MEASURED QUANTITY: MTD (mg/kg)
Expressed in mg/kg, but write only the number.

C[C@@H]1O[C@@H](O[C@H]2[C@H](O[C@H]3CC[C@@]4(C)[C@@H](CC[C@]5(C)[C@@H]4CC=C4[C@@H]6CC(C)(C)CC[C@]6(C(=O)[O-])CC[C@]45C)[C@]3(C)CO)OC[C@H](O)[C@@H]2O)[C@H](O)[C@H](O)[C@H]1O.[Na+] | 10

Below: the item to evaluate.
Read off the recorded MTD for `C[C@@H]1O[C@@H](O[C@H]2[C@H](O[C@H]3CC[C@@]4(C)[C@@H](CC[C@]5(C)[C@@H]4CC=C4[C@@H]6CC(C)(C)CC[C@]6(C(=O)[O-])CC[C@]45C)[C@]3(C)CO)OC[C@H](O[C@@H]3O[C@H](CO)[C@@H](O)[C@H](O)[C@H]3O)[C@@H]2O)[C@H](O)[C@H](O)[C@H]1O.[Na+]`
10

* * *

Test: Cytotoxicity against human HL7702 cells assessed as inhibition of cell growth after 24 hrs by MTT assay
Format: cell-based
Conditions: L02, 24 h
The following compounds are listed with their measured pIC50 values.
Keep it numeric: pIC50 is minus log10 of the concentration in mol/L.

The cases that follow already have their pIC50 on record.
COC(=O)CCN1CCN(C(=O)[C@]23CCC(C)(C)C[C@H]2C2=CC[C@@H]4[C@@]5(C)CC[C@H](O[C@@H]6OC[C@H](O)[C@H](O)[C@H]6O[C@@H]6O[C@@H](C)[C@H](O)[C@@H](O)[C@H]6O)[C@@](C)(CO)[C@@H]5CC[C@@]4(C)[C@]2(C)CC3)CC1 | 4.21
C[C@@H]1O[C@@H](O[C@H]2[C@H](O[C@H]3CC[C@@]4(C)[C@@H](CC[C@]5(C)[C@@H]4CC=C4[C@@H]6CC(C)(C)CC[C@]6(C(=O)O)CC[C@]45C)[C@]3(C)CO)OC[C@H](O[C@@H]3O[C@H](CO)[C@@H](O)[C@H](O)[C@H]3O)[C@@H]2O)[C@H](O)[C@H](O)[C@H]1O [HEDERACOLCHISIDE A] | 4.90
C[C@@H]1O[C@@H](O[C@H]2[C@H](O[C@H]3CC[C@@]4(C)[C@@H](CC[C@]5(C)[C@@H]4CC=C4[C@@H]6CC(C)(C)CC[C@]6(C(=O)N6CCOCC6)CC[C@]45C)[C@]3(C)CO)OC[C@H](O)[C@@H]2O)[C@H](O)[C@H](O)[C@H]1O | 4.66

Read off the recorded pIC50 for `C[C@@H]1O[C@@H](O[C@H]2[C@H](O[C@H]3CC[C@@]4(C)[C@@H](CC[C@]5(C)[C@@H]4CC=C4[C@@H]6CC(C)(C)CC[C@]6(C(=O)NCC(=O)O)CC[C@]45C)[C@]3(C)CO)OC[C@H](O[C@@H]3O[C@H](CO)[C@@H](O)[C@H](O)[C@H]3O)[C@@H]2O)[C@H](O)[C@H](O)[C@H]1O`
5.82

* * *

Test: Hemolytic activity in rabbit RBC assessed as induction of hemolysis
Type: cell-based, Oryctolagus cuniculus, Erythrocyte
Conditions: red blood cells, read-out: HD50 (the source's name)
MEASURED QUANTITY: HC50 (µM)
Expressed in µM, but write only the number.

C[C@@H]1O[C@@H](O[C@H]2[C@H](O[C@H]3CC[C@@]4(C)[C@@H](CC[C@]5(C)[C@@H]4CC=C4[C@@H]6CC(C)(C)CC[C@]6(C(=O)N6CCC[C@H]6C(=O)O)CC[C@]45C)[C@]3(C)CO)OC[C@H](O[C@@H]3O[C@H](CO)[C@@H](O)[C@H](O)[C@H]3O)[C@@H]2O)[C@H](O)[C@H](O)[C@H]1O | 326
CCN(CC)CCNC(=O)[C@]12CCC(C)(C)C[C@H]1C1=CC[C@@H]3[C@@]4(C)CC[C@H](O[C@@H]5OC[C@H](O)[C@H](O)[C@H]5O[C@@H]5O[C@@H](C)[C@H](O)[C@@H](O)[C@H]5O)[C@@](C)(CO)[C@@H]4CC[C@@]3(C)[C@]1(C)CC2 | 75.3

Below: the item to evaluate.
Read off the recorded HC50 for `C[C@@H]1O[C@@H](O[C@H]2[C@H](O[C@H]3CC[C@@]4(C)[C@@H](CC[C@]5(C)[C@@H]4CC=C4[C@@H]6CC(C)(C)CC[C@]6(C(=O)N[C@H](CO)C(=O)O)CC[C@]45C)[C@]3(C)CO)OC[C@H](O[C@@H]3O[C@H](CO)[C@@H](O)[C@H](O)[C@H]3O)[C@@H]2O)[C@H](O)[C@H](O)[C@H]1O`
60.3

* * *

Tested on: Mus musculus
Assay: Toxicity in mouse assessed as induction of hematuria at 0.1 mL/10 g, iv
Format: organism-based
Details: in vivo
MEASURED QUANTITY: Activity

C[C@@H]1O[C@@H](O[C@H]2[C@H](O[C@H]3CC[C@@]4(C)[C@@H](CC[C@]5(C)[C@@H]4CC=C4[C@@H]6CC(C)(C)CC[C@]6(C(=O)NCC(=O)[O-])CC[C@]45C)[C@]3(C)CO)OC[C@H](O[C@@H]3O[C@H](CO)[C@@H](O)[C@H](O)[C@H]3O)[C@@H]2O)[C@H](O)[C@H](O)[C@H]1O.[Na+] | Non-toxic
C[C@@H]1O[C@@H](O[C@H]2[C@H](O[C@H]3CC[C@@]4(C)[C@@H](CC[C@]5(C)[C@@H]4CC=C4[C@@H]6CC(C)(C)CC[C@]6(C(=O)[O-])CC[C@]45C)[C@]3(C)CO)OC[C@H](O[C@@H]3O[C@H](CO)[C@@H](O)[C@H](O)[C@H]3O)[C@@H]2O)[C@H](O)[C@H](O)[C@H]1O.[Na+] | Toxic
C[C@@H]1O[C@@H](O[C@H]2[C@H](O[C@H]3CC[C@@]4(C)[C@@H](CC[C@]5(C)[C@@H]4CC=C4[C@@H]6CC(C)(C)CC[C@]6(C(=O)NCC(=O)[O-])CC[C@]45C)[C@]3(C)CO)OC[C@H](O)[C@@H]2O)[C@H](O)[C@H](O)[C@H]1O.[Na+] | Non-toxic

* * *

Test: Ratio of hemolytic HD50 for PSA to hemolytic HD50 for compound in rabbit RBC
Type: ADME, cell-based, Oryctolagus cuniculus
Conditions: erythrocyte
MEASURED QUANTITY: Ratio
Give the value as a plain number.

Read off the recorded Ratio for `COC(=O)[C@@H](CO)NC(=O)[C@]12CCC(C)(C)C[C@H]1C1=CC[C@@H]3[C@@]4(C)CC[C@H](O[C@@H]5OC[C@H](O)[C@H](O)[C@H]5O[C@@H]5O[C@@H](C)[C@H](O)[C@@H](O)[C@H]5O)[C@@](C)(CO)[C@@H]4CC[C@@]3(C)[C@]1(C)CC2`
20

* * *

Test system: Mus musculus
Assay: Toxicity in mouse assessed as induction of hematuria at 0.1 mL/10 g, iv
Assay type: organism-based
Settings: in vivo
MEASURED QUANTITY: Activity

C[C@@H]1O[C@@H](O[C@H]2[C@H](O[C@H]3CC[C@@]4(C)[C@@H](CC[C@]5(C)[C@@H]4CC=C4[C@@H]6CC(C)(C)CC[C@]6(C(=O)[O-])CC[C@]45C)[C@]3(C)CO)OC[C@H](O)[C@@H]2O)[C@H](O)[C@H](O)[C@H]1O.[Na+] | Toxic

* * *

The following molecules are listed with their measured pIC50 values.
Test: Cytotoxicity against human HL7702 cells assessed as inhibition of cell growth after 24 hrs by MTT assay
Format: cell-based
Details: L02, 24 h
Keep it numeric: pIC50 is minus log10 of the concentration in mol/L.

C[C@@H]1O[C@@H](O[C@H]2[C@H](O[C@H]3CC[C@@]4(C)[C@@H](CC[C@]5(C)[C@@H]4CC=C4[C@@H]6CC(C)(C)CC[C@]6(C(=O)NC6CC6)CC[C@]45C)[C@]3(C)CO)OC[C@H](O)[C@@H]2O)[C@H](O)[C@H](O)[C@H]1O | 4.44

Below: the item to evaluate.
Read off the recorded pIC50 for `C[C@@H]1O[C@@H](O[C@H]2[C@H](O[C@H]3CC[C@@]4(C)[C@@H](CC[C@]5(C)[C@@H]4CC=C4[C@@H]6CC(C)(C)CC[C@]6(C(=O)NCCN6CCCC6)CC[C@]45C)[C@]3(C)CO)OC[C@H](O)[C@@H]2O)[C@H](O)[C@H](O)[C@H]1O`
4.35

* * *

Experiment: Cytotoxicity against human HL7702 cells assessed as inhibition of cell growth after 24 hrs by MTT assay
Assay type: cell-based
Conditions: L02, 24 h
The following molecules are listed with their measured pIC50 values.
Keep it numeric: pIC50 is minus log10 of the concentration in mol/L.

The cases that follow already have their pIC50 on record.
C[C@@H]1O[C@@H](O[C@H]2[C@H](O[C@H]3CC[C@@]4(C)[C@@H](CC[C@]5(C)[C@@H]4CC=C4[C@@H]6CC(C)(C)CC[C@]6(C(=O)Nc6ccccc6O)CC[C@]45C)[C@]3(C)CO)OC[C@H](O)[C@@H]2O)[C@H](O)[C@H](O)[C@H]1O | 4.07
C[C@@H]1O[C@@H](O[C@H]2[C@H](O[C@H]3CC[C@@]4(C)[C@@H](CC[C@]5(C)[C@@H]4CC=C4[C@@H]6CC(C)(C)CC[C@]6(C(=O)N[C@H](CO)C(=O)O)CC[C@]45C)[C@]3(C)CO)OC[C@H](O)[C@@H]2O)[C@H](O)[C@H](O)[C@H]1O | 4.59
C[C@@H]1O[C@@H](O[C@H]2[C@H](O[C@H]3CC[C@@]4(C)[C@@H](CC[C@]5(C)[C@@H]4CC=C4[C@@H]6CC(C)(C)CC[C@]6(C(=O)Nc6ccc(C(=O)O)cc6)CC[C@]45C)[C@]3(C)CO)OC[C@H](O)[C@@H]2O)[C@H](O)[C@H](O)[C@H]1O | 6.15
CCN(CC)CCNC(=O)[C@]12CCC(C)(C)C[C@H]1C1=CC[C@@H]3[C@@]4(C)CC[C@H](O[C@@H]5OC[C@H](O)[C@H](O)[C@H]5O[C@@H]5O[C@@H](C)[C@H](O)[C@@H](O)[C@H]5O)[C@@](C)(CO)[C@@H]4CC[C@@]3(C)[C@]1(C)CC2 | 4.39
COC(=O)[C@]12CCC(C)(C)C[C@H]1C1=CC[C@@H]3[C@@]4(C)CC[C@H](O[C@@H]5OC[C@H](O)[C@H](O)[C@H]5O[C@@H]5O[C@@H](C)[C@H](O)[C@@H](O)[C@H]5O)[C@@](C)(CO)[C@@H]4CC[C@@]3(C)[C@]1(C)CC2 | 4.44

Below: the item to evaluate.
Read off the recorded pIC50 for `C[C@@H]1O[C@@H](O[C@H]2[C@H](O[C@H]3CC[C@@]4(C)[C@@H](CC[C@]5(C)[C@@H]4CC=C4[C@@H]6CC(C)(C)CC[C@]6(C(=O)O)CC[C@]45C)[C@]3(C)CO)OC[C@H](O)[C@@H]2O)[C@H](O)[C@H](O)[C@H]1O`
4.94
